System: RAW-Dual (murine macrophage reporter line)
Experiment: NF-kB reporter (SEAP) activity fold change vs agonist alone; higher = enhanced NF-kB activity
Details: modulator concentration 10 µM; agonist: MPLA […]
Provide the recorded NF-kB reporter for the entries that follow.
Answers are plain numbers.

Molecule	NF-kB reporter
COc1cc(CNCCc2c[nH]c3ccccc23)cc(OC)c1O	1.04

Batch request: NF-kB reporter for each of the following molecules.
1. O=C1NC(=O)N(c2ccccc2F)C(=O)C1=Cc1ccc(OCc2ccc([N+](=O)[O-])cc2)c(Cl)c1
2. COc1cc([C@@H]2c3cc4c(cc3[C@H](O)[C@H]3COC(=O)[C@H]23)OCO4)cc(OC)c1OC [Prestw-782]
3. COc1cc2c(c(OC)c1OC)-c1ccc(OC)c(=O)cc1[C@@H](NC(C)=O)CC2
4. CCC1(c2ccccc2)C(=O)N(Cc2ccccc2)C(=O)N(Cc2ccccc2)C1=O
5. c1cc2c(cc1C1OCC3C(c4ccc5c(c4)OCO5)OCC13)OCO2 (stereo not drawn)
6. COC12CC(COC(=O)c3cncc(Br)c3)CN(C)C1Cc1cn(C)c3cccc2c13 (stereo not drawn)
7. O=C1NC(=S)NC(=O)C1=Cc1ccc(OCc2ccc(F)cc2)c(Cl)c1

Return:
1. 0.894
2. 2.69
3. 2.47
4. 0.967
5. 1.1
6. 1.03
7. 0.802

Batch request: NF-kB reporter for each of the following molecules.
1. CCC1(O)C(=O)OCc2c1cc1n(c2=O)Cc2cc3ccccc3nc2-1 (stereo not drawn)
2. COc1ccc2c(c1O)-c1c(OC)c(OC)cc3c1C(C2)N(C)CC3 (stereo not drawn)
3. O=C(NCCN1CCOCC1)c1ccc(Cl)nc1
4. CC(=O)OC1CN2CCC1CC2.Cl (stereo not drawn)
5. CCOc1cc(C=C2C(=O)NC(=O)NC2=O)ccc1OCc1c(Cl)cccc1Cl

Return:
1. 0.889
2. 1.1
3. 0.995
4. 0.971
5. 0.938

Data origin, for the record: the supplement of paper PMC10646978
